biological target: T1R1/T1R3 receptor (Felis catus, UniProt E3UMS2); assay: Example 8: PAM screening of transmembrane compounds with GMP and Ala on T1R1/T1R3 in HEK293 cells; assay type: cell-based, cat; conditions: compound at 0.01, 0.1 and 1 mM in combination with GMP+Ala mixtures (T1-T4); PAM if response greater than sum of compound alone and GMP+Ala alone
Recorded endpoint: T1R1/T1R3 PAM

Below, 5 compounds whose answers are already recorded.
{"Compound": "COc1ccccc1C(=O)CN1C(=O)C(=O)N(Cc2cccs2)C1=O [Formula 10]", "Study target": "T1R1/T1R3 receptor (Felis catus, UniProt E3UMS2)", "T1R1/T1R3 PAM": "No"}
{"Compound": "O=C(CN1C(=O)C(=O)N(CCc2cccs2)C1=O)c1ccccc1 [Formula 6]", "Study target": "T1R1/T1R3 receptor (Felis catus, UniProt E3UMS2)", "T1R1/T1R3 PAM": "No"}
{"Compound": "O=C(CN1C(=O)C(=O)N(CCc2cccs2)C1=O)c1cccc2ccccc12 [Formula 11]", "Study target": "T1R1/T1R3 receptor (Felis catus, UniProt E3UMS2)", "T1R1/T1R3 PAM": "No"}
{"Compound": "Cc1ccc(CNC(Cc2ccccc2)C(=O)O)cc1 (stereo not drawn) [Formula 23]", "Study target": "T1R1/T1R3 receptor (Felis catus, UniProt E3UMS2)", "T1R1/T1R3 PAM": "No"}
{"Compound": "COC(=O)[C@H](Cc1ccccc1)NCc1ccccc1.Cl [Formula 15]", "Study target": "T1R1/T1R3 receptor (Felis catus, UniProt E3UMS2)", "T1R1/T1R3 PAM": "Yes"}

// batch mode: one T1R1/T1R3 PAM value per listed entry
1. COC(=O)[C@@H](Cc1ccccc1)NCc1ccccc1.Cl [Formula 16]
2. O=C(CN1C(=O)C(=O)N(Cc2ccccc2)C1=O)c1ccc(Br)cc1 [Formula 3]
3. O=C(O)[C@H](Cc1ccc(O)cc1)NCc1ccccc1 [Formula 22, N-Benzyl-L-Tyrosine]

1: Yes; 2: No; 3: No
